ASSAY INFO: Metabolic stability in human liver microsomes
Assay type: in vitro ADME
CONDITION NOTES: pH 7.4
READOUT TYPE: remaining at 0.5 h, 10 μM (%)
Response body: numeric value in %, unit text excluded.

### Prompt Record request: remaining at 0.5 h, 10 μM value, item O=C(CCc1ccc(O)cc1)c1c(O)cc(O)cc1O [PHL, Phloretin, reference compound]
### Response 10.3

----------
TESTED TARGET: Keap1-Nrf2 PPI (Keap1 Kelch domain protein / FITC-9mer Nrf2 peptide amide) (Homo sapiens)
Sequence (Q14145 321-609 limits assumed): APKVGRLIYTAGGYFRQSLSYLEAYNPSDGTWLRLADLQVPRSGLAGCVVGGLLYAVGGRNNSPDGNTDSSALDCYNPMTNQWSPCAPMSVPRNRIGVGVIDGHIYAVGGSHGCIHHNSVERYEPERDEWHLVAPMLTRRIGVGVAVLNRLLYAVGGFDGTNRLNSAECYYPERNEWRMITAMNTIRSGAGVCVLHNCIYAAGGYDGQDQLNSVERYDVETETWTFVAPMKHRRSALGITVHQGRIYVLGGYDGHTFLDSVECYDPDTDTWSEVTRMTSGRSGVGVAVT
ASSAY INFO: Fluorescence polarisation
The following compounds are shown together with reported pIC50 values.
Please treat pIC50 as minus the base-10 logarithm of the molar concentration.

Below are worked cases with known answers.
COMPOUND: COc1ccc(S(=O)(=O)Nc2ccc(NS(=O)(=O)c3ccc(OC)cc3)c(CCC(=O)O)c2)cc1
pIC50: 6.13
--
COMPOUND: COc1ccc(S(=O)(=O)Nc2ccc(NS(=O)(=O)c3ccc(OC)cc3)cc2)cc1
pIC50: 4.44

### Prompt Record request: pIC50 value, item O=C(CCc1ccc(O)cc1)c1c(O)cc(O)cc1O [PHL, Phloretin, reference compound]
### Response 5.06

Every entry's value here was drawn from paper PMC9518255.
